- Test Target: human CGRP receptor (Homo sapiens, UniProt O60894+Q16602)
- Construct: SK-N-MC membranes (˜20 μg protein) are incubated for 180 minutes at ambient temperature; endogenous in cells
- Sequence (Q16602 23-461): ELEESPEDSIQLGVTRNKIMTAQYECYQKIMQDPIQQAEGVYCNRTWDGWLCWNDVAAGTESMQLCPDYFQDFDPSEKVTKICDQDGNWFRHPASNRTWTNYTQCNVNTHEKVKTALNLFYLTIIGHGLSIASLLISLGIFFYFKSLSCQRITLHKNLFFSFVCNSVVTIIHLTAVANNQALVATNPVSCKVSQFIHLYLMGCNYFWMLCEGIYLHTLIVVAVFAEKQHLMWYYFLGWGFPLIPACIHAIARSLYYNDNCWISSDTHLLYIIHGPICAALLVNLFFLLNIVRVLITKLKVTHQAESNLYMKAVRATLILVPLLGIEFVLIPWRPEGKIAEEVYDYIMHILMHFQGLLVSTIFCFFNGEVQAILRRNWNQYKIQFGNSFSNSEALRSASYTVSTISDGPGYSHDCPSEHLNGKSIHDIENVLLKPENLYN
- Sequence (O60894 27-148): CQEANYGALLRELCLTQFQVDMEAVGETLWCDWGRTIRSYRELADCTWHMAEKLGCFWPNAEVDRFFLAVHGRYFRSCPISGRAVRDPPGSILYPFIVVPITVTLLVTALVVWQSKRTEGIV
- Test Summary: Binding studies with SK-N-MC cells (125I-CGRP displacement from membranes)
- Applied Conditions: 50 pM 125I-iodotyrosyl-CGRP, 180 min, ambient temperature
Outcome Measure: Ki
For clarity, give the value followed by its unit.

GET /values?readout=Ki&item= `Cc1cc(Oc2cc(N3CCC(n4c(=O)[nH]c5ncccc54)CC3)ncn2)cc2oc(=O)[nH]c12` 3 nM

Also `Cc1cc(Oc2cc(N3CCC4(CC3)OC(=O)Nc3ncccc34)ncn2)cc2c1NC(=O)CO2` ? 4 nM

Also `COc1ccc2c(c1)CCN(C1CCN(c3cc(Nc4cc(C)c(O)c(C)c4)ncn3)CC1)C(=O)N2` ? 198 nM

Also `Cc1cc(Oc2cc(N3CCC4(CC3)OC(=O)Nc3ncccc34)ncn2)cc2[nH]c(C3CC3)nc12` ? 1 nM

---

- Test Target: human CGRP receptor (Homo sapiens, UniProt O60894+Q16602)
- Construct: SK-N-MC membranes (˜20 μg protein) are incubated for 180 minutes at ambient temperature; endogenous in cells
- Test Summary: Binding studies with SK-N-MC cells (125I-CGRP displacement from membranes)
- Applied Conditions: 50 pM 125I-iodotyrosyl-CGRP, 180 min, ambient temperature
A collection of compounds and their measured pKi
Lab note — pKi values are minus log10 of concentrations in M.

Examples from the recorded data:
>  <Compound>
COc1ccc2c(c1)CCN(C1CCN(c3nc(Cl)cc(Oc4cc(C)c5[nH]c(=O)oc5c4)n3)CC1)C(=O)N2 [(46)]

>  <Test Target>
human CGRP receptor (Homo sapiens, UniProt O60894+Q16602)

>  <pKi>
6.71

$$$$
>  <Compound>
O=C1Nc2ncccc2C2(CCN(c3cc(Oc4cc(Cl)c5[nH]c(C6CCOC6)nc5c4)ncn3)CC2)O1 (stereo not shown) [(61)]

>  <Test Target>
human CGRP receptor (Homo sapiens, UniProt O60894+Q16602)

>  <pKi>
8.70

$$$$
>  <Compound>
Cc1cc(Oc2cc(N3CCC4(CC3)OC(=O)Nc3ncccc34)ncn2)cc2sc(=O)[nH]c12 [(64)]

>  <Test Target>
human CGRP receptor (Homo sapiens, UniProt O60894+Q16602)

>  <pKi>
8.70

$$$$
>  <Compound>
Cc1nc(Nc2cc(C)c3[nH]c(=O)oc3c2)cc(N2CCC(n3c(=O)[nH]c4ncccc43)CC2)n1 [(24)]

>  <Test Target>
human CGRP receptor (Homo sapiens, UniProt O60894+Q16602)

>  <pKi>
8.52

$$$$
>  <Compound>
Cc1cc(Oc2cc(N3CCC(n4c(=O)[nH]c5ncccc54)CC3)ncn2)cc2[nH]c(C3CC3)nc12 [(43)]

>  <Test Target>
human CGRP receptor (Homo sapiens, UniProt O60894+Q16602)

>  <pKi>
8.22

$$$$

GET /values?readout=pKi&item= COc1ccc2c(c1)CCN(C1CCN(c3cc(Oc4cc(C)c5nc(CC(F)(F)F)[nH]c5c4)ncn3)CC1)C(=O)N2 [(35)] 7.80

Also Cc1nc2cc(Nc3cc(N4CCC(n5c(=O)[nH]c6ncccc65)CC4)ncn3)cc(C)c2o1 [(20)] ? 6.32

Also Cc1cc(Oc2cc(N3CCC4(CC3)OC(=O)Nc3ncccc34)ncn2)cc2oc(=O)[nH]c12 [(23)] ? 9.00

---

- Test Target: human CGRP receptor (Homo sapiens, UniProt O60894+Q16602)
- Construct: SK-N-MC membranes (˜20 μg protein) are incubated for 180 minutes at ambient temperature; endogenous in cells
- Test Summary: Binding studies with SK-N-MC cells (125I-CGRP displacement from membranes)
- Applied Conditions: 50 pM 125I-iodotyrosyl-CGRP, 180 min, ambient temperature
A collection of molecules and their measured pKi
Lab note — pKi values are minus log10 of concentrations in M.

Examples from the recorded data:
>  <Molecule>
COc1ccc2c(c1)CCN(C1CCN(c3cc(Nc4cc(C)c5c(c4)nc(C)n5C)ncn3)CC1)C(=O)N2 [(12)]

>  <Test Target>
human CGRP receptor (Homo sapiens, UniProt O60894+Q16602)

>  <pKi>
7.21

$$$$
>  <Molecule>
Cc1nc2cc(Oc3cc(N4CCC5(CC4)OC(=O)Nc4ncccc45)ncn3)cc(Cl)c2[nH]1 [(51)]

>  <Test Target>
human CGRP receptor (Homo sapiens, UniProt O60894+Q16602)

>  <pKi>
8.52

$$$$
>  <Molecule>
COc1ccc2c(c1)CCN(C1CCN(c3cc(Oc4cc(C)c5[nH]c(=O)oc5c4)nc(C4CC4)n3)CC1)C(=O)N2 [(45)]

>  <Test Target>
human CGRP receptor (Homo sapiens, UniProt O60894+Q16602)

>  <pKi>
7.09

$$$$
>  <Molecule>
Cc1nc2cc(Nc3cc(N4CCC(n5c(=O)[nH]c6ncccc65)CC4)ncn3)cc(C)c2[nH]1 [(13)]

>  <Test Target>
human CGRP receptor (Homo sapiens, UniProt O60894+Q16602)

>  <pKi>
7.17

$$$$

GET /values?readout=pKi&item= COc1ccc2c(c1)CCN(C1CCN(c3cc(Nc4cc(C)c5[nH]c(C)nc5c4)ncn3)CC1)C(=O)N2 [(8)] 7.92

Also COc1ccc2c(c1)CCN(C1CCN(c3cc(Oc4cc(C)c5c(c4)oc(=O)n5C)ncn3)CC1)C(=O)N2 [(3)] ? 7.64

Also Cc1cc(Oc2cc(N3CCC4(CC3)OC(=O)Nc3ncccc34)ncn2)cc2[nH]c([C@H]3CCCO3)nc12 [(70)] ? 8.30

Also COc1ccc2c(c1)CCN(C1CCN(c3cc(Oc4cc(C)c5[nH]c(=O)oc5c4)nc(C)n3)CC1)C(=O)N2 [(22)] ? 8.30

---

A collection of compounds and their measured Ki
- Test Target: human CGRP receptor (Homo sapiens, UniProt O60894+Q16602)
- Construct: SK-N-MC membranes (˜20 μg protein) are incubated for 180 minutes at ambient temperature; endogenous in cells
- Test Summary: Binding studies with SK-N-MC cells (125I-CGRP displacement from membranes)
- Applied Conditions: 50 pM 125I-iodotyrosyl-CGRP, 180 min, ambient temperature

Examples from the recorded data:
>  <Compound>
COc1ccc2c(c1)CCN(C1CCN(c3cc(Oc4cc(C)c5nc([C@@H]6CCCO6)[nH]c5c4)ncn3)CC1)C(=O)N2 [(53)]

>  <Ki>
0.005 µM

$$$$
>  <Compound>
COc1ccc2c(c1)CCN(C1CCN(c3cc(Sc4cc(C)c5[nH]c(=O)oc5c4)ncn3)CC1)C(=O)N2 [(21)]

>  <Ki>
0.002 µM

$$$$
>  <Compound>
COc1ccc2c(c1)CCN(C1CCN(c3cc(Nc4cc(C)c5[nH]ncc5c4)ncn3)CC1)C(=O)N2 [(11)]

>  <Ki>
0.054 µM

$$$$
>  <Compound>
Cc1cc(Oc2cc(N3CCC4(CC3)OC(=O)Nc3ncccc34)ncn2)cc2nc([C@@H]3CCOC3)[nH]c12 [(59)]

>  <Ki>
0.002 µM

$$$$

GET /values?readout=Ki&item= COc1ccc2c(c1)CCN(C1CCN(c3cc(Oc4cnc5ccccc5n4)ncn3)CC1)C(=O)N2 [(27)] 0.207 µM

Also Cc1nc(Oc2cc(C)c3[nH]c(=O)oc3c2)cc(N2CCC3(CC2)C(=O)Nc2ncccc23)n1 [(77)] ? 0.021 µM

Also COc1ccc2c(c1)CCN(C1CCN(c3cc(S(=O)(=O)c4cc(C)c5[nH]c(=O)oc5c4)ncn3)CC1)C(=O)N2 [(26)] ? 0.045 µM

Also COc1ccc2c(c1)CCN(C1CCN(c3cc(Oc4cc(C)nc5ccccc45)ncn3)CC1)C(=O)N2 [(31)] ? 0.129 µM

---

A collection of compounds and their measured log10 of Ki
- Test Target: human CGRP receptor (Homo sapiens, UniProt O60894+Q16602)
- Construct: SK-N-MC membranes (˜20 μg protein) are incubated for 180 minutes at ambient temperature; endogenous in cells
- Test Summary: Binding studies with SK-N-MC cells (125I-CGRP displacement from membranes)
- Applied Conditions: 50 pM 125I-iodotyrosyl-CGRP, 180 min, ambient temperature
The common logarithm of Ki in nM is what is listed.

Examples from the recorded data:
>  <Compound>
O=C1Nc2ncccc2C2(CCN(c3cc(Oc4cc(Cl)c5[nH]c(C6CCOCC6)nc5c4)ncn3)CC2)O1 [(62)]

>  <Test Target>
human CGRP receptor (Homo sapiens, UniProt O60894+Q16602)

>  <Outcome Measure>
log10 of Ki

>  <Result>
0.30

$$$$
>  <Compound>
COc1ccc2c(c1)CCN(C1CCN(c3cc(Oc4ccc5[nH]c(=O)oc5c4)ncn3)CC1)C(=O)N2 [(47)]

>  <Test Target>
human CGRP receptor (Homo sapiens, UniProt O60894+Q16602)

>  <Outcome Measure>
log10 of Ki

>  <Result>
1.67

$$$$
>  <Compound>
Cc1cc(Oc2cc(N3CCC4(CC3)OC(=O)Nc3ncccc34)ncc2C#N)cc2oc(=O)[nH]c12 [(75)]

>  <Test Target>
human CGRP receptor (Homo sapiens, UniProt O60894+Q16602)

>  <Outcome Measure>
log10 of Ki

>  <Result>
1.36

$$$$
>  <Compound>
COCc1nc2cc(Oc3cc(N4CCC5(CC4)OC(=O)Nc4ncccc45)ncn3)cc(C)c2[nH]1 [(39)]

>  <Test Target>
human CGRP receptor (Homo sapiens, UniProt O60894+Q16602)

>  <Outcome Measure>
log10 of Ki

>  <Result>
0.85

$$$$
>  <Compound>
Cc1nc2cc(Nc3cc(N4CCC(n5c(=O)[nH]c6c7ccccc7ncc65)CC4)ncn3)cc(C)c2[nH]1 [(9)]

>  <Test Target>
human CGRP receptor (Homo sapiens, UniProt O60894+Q16602)

>  <Outcome Measure>
log10 of Ki

>  <Result>
1.57

$$$$
>  <Compound>
COc1ccc2c(c1)CCN(C1CCN(c3cc(Oc4ccc5[nH]c(C)nc5c4)ncn3)CC1)C(=O)N2 [(55)]

>  <Test Target>
human CGRP receptor (Homo sapiens, UniProt O60894+Q16602)

>  <Outcome Measure>
log10 of Ki

>  <Result>
1.95

$$$$
>  <Compound>
Cc1cc(Nc2cc(Nc3ccc4c(c3)CC3(C4)C(=O)Nc4ncccc43)ncn2)cc2oc(=O)[nH]c12 (stereo not shown) [(18)]

>  <Test Target>
human CGRP receptor (Homo sapiens, UniProt O60894+Q16602)

>  <Outcome Measure>
log10 of Ki

>  <Result>
2.36

$$$$
>  <Compound>
COc1ccc2c(c1)CCN(C1CCN(c3cc(N(C(C)=O)c4cc(C)c5c(c4)oc(=O)n5C)ncn3)CC1)C(=O)N2 [(15)]

>  <Test Target>
human CGRP receptor (Homo sapiens, UniProt O60894+Q16602)

>  <Outcome Measure>
log10 of Ki

>  <Result>
2.01

$$$$

GET /values?readout=log10 of Ki&item= COc1ccc2c(c1)CCN(C1CCN(c3cc(Oc4cc(C)c5nc(CC#N)[nH]c5c4)ncn3)CC1)C(=O)N2 [(28)] 0.60

Also Cc1cc(Oc2cc(N3CCC4(CC3)OC(=O)Nc3ncccc34)nc(C(F)(F)F)n2)cc2oc(=O)[nH]c12 [(74)] ? 1.46

Also Cc1nc(Oc2cc(C)c3[nH]c(=O)oc3c2)cc(N2CCC3(CC2)OC(=O)Nc2ncccc23)n1 [(71)] ? 0.90

Also Cc1nc(Oc2cc(C)c3[nH]c(=O)oc3c2)cc(N2CCC3(CC2)CC(=O)Nc2ncccc23)n1 [(76)] ? 1.41

Also COc1ccc2c(c1)CCN(C1CCN(c3cc([S+]([O-])c4cc(C)c5[nH]c(=O)oc5c4)ncn3)CC1)C(=O)N2 (stereo not shown) [(25)] ? 1.26

Also Cc1cc(Nc2cc(N3CCC(n4c(=O)[nH]c5ncccc54)CC3)ncn2)cc2oc(=O)[nH]c12 [(6)] ? 0.60

Also COc1ccc2c(c1)CCN(C1CCN(c3cc(Oc4ccc5[nH]c(C)nc5c4Cl)ncn3)CC1)C(=O)N2 [(56)] ? 1.46

Also Cc1cc(Nc2cc(N3CCC(n4c(=O)[nH]c5ncccc54)CC3)ncn2)cc2oc(=O)n(C)c12 [(14)] ? 1.91
